Hello, the source for this data is PubChem BioAssay AID1259407, in case you need it.

# Test system: CCRIS mutagenicity, Ames/micronucleus/aberration tests
# Experiment description: CCRIS mutagenicity studies
# Measurement conditions: Test System: AMES SALMONELLA TYPHIMURIUM; Strain/Indicator: TA1535; Metabolic Activation: HAMSTER, LIVER, S-9, AROCLOR 1254 (10%); Method: PREINCUBATION
Activity calls are given as the source filed them. The rule behind the calls is not given here.
Hello, when you answer, please use one of the following outcomes: active, inactive

Recorded test call requested for `O=c1ccc2ccccc2o1` inactive

Recorded test call requested for `O=C(O)c1ccccc1-c1c2ccc(=O)cc-2oc2cc(O)ccc12` inactive

Recorded test call requested for CC(C)(COCC1CO1)COCC1CO1 (stereo unspecified) active

Recorded test call requested for `O=NN1CCCCC1` active

Recorded test call requested for CCCCC(CC)COC(=O)C(C#N)=C(c1ccccc1)c1ccccc1 (stereo unspecified) inactive

Recorded test call requested for `NC(N)=NC(N)=NCCc1ccccc1` inactive

Recorded test call requested for `COc1cc(-c2ccc(N/N=C3\C(=O)c4c(O)cc(S(=O)(=O)O)cc4C=C3S(=O)(=O)O)c(OC)c2)ccc1N/N=C1\C(=O)c2c(O)cc(S(=O)(=O)O)cc2C=C1S(=O)(=O)O` inactive

Recorded test call requested for `Cc1ccc(S(=O)(=O)Oc2ccc(N=Nc3ccc(-c4ccc(N=Nc5c(O)ccc6cc(S(=O)(=O)O)cc(S(=O)(=O)O)c56)c(C)c4)cc3C)cc2)cc1` inactive

Recorded test call requested for `OCCN1CN(CCO)CN(CCO)C1` inactive

Recorded test call requested for `Nc1ccc(Cc2ccc(N)cc2)cc1` active

Recorded test call requested for CCCCC(CC)COC(=O)CCCCC(=O)O (stereo unspecified) inactive

====

# Test system: CCRIS mutagenicity, Ames/micronucleus/aberration tests
# Experiment description: CCRIS mutagenicity studies
# Measurement conditions: Test System: AMES SALMONELLA TYPHIMURIUM; Strain/Indicator: TA97; Metabolic Activation: RAT, LIVER, S-9, AROCLOR 1254 (10%); Method: PREINCUBATION
Activity calls are given as the source filed them. No rule for the calls is given here.
Hello, when you answer, please use one of the following outcomes: active, inactive

Recorded test call requested for `O=[N+]([O-])c1ccc(CCO)cc1` inactive

Recorded test call requested for `Nc1nc2ccccc2[nH]1` inactive

Recorded test call requested for CCCCCCCCCCCCOCC1CO1 (stereo not drawn) inactive

Recorded test call requested for `OCCCBr` inactive

Recorded test call requested for `CC(=O)OCCC(C)C` inactive

Recorded test call requested for `C1CCC(NC2CCCCC2)CC1` inactive

Recorded test call requested for `O=C1c2c(O)cccc2Cc2cccc(O)c21` inactive

Recorded test call requested for CCS(=O)CCSP(=O)(OC)OC (stereo not drawn) inactive

Recorded test call requested for `CCCCCCCC(=O)O` inactive

Recorded test call requested for `CN(C)c1ccc(N=Nc2ccccc2)cc1` inactive

Recorded test call requested for `O=[N+]([O-])c1c(O)c(Cl)cc(Cl)c1Cl` inactive

Recorded test call requested for `N#CCC#N` inactive

Recorded test call requested for `C=CC(=O)NCNC(=O)C=C` inactive

Recorded test call requested for `CCNc1nc(Cl)nc(NC(C)C)n1` inactive

Recorded test call requested for `S=c1[nH]c2ccccc2[nH]1` inactive

Recorded test call requested for `N#C/C(N)=C(/N)C#N` inactive

Recorded test call requested for CC(COc1ccccc1)N(CCCl)Cc1ccccc1 (stereo not drawn) active

Recorded test call requested for `CCN(CC)C(=O)c1cccc(C)c1` inactive

Recorded test call requested for `COc1ccc(/C=N/n2nnc3c([nH]c4ccccc43)c2=O)cc1` active

Recorded test call requested for `S=C(NC1CCCCC1)NC1CCCCC1` inactive

Recorded test call requested for `CCCCCCC=O` inactive

Recorded test call requested for `CCNc1cccc(O)c1` inactive

Recorded test call requested for `O=C(O)c1cccc(Cl)c1` inactive

Recorded test call requested for O=C(OCC1CO1)c1cccc(C(=O)OCC2CO2)c1 (stereo not drawn) inactive

Recorded test call requested for `O=C(O)CN(CCN(CC(=O)O)CC(=O)O)CC(=O)O` inactive

Recorded test call requested for CCC(CO)[N+](=O)[O-] (stereo not drawn) inactive

Recorded test call requested for `Nc1cc(C(=O)O)c(O)c(S(=O)(=O)O)c1` inactive

Recorded test call requested for `CC(=O)NBr` inactive

====

# System: CCRIS mutagenicity, Ames/micronucleus/aberration tests
# Experiment description: CCRIS mutagenicity studies
# Measurement conditions: Test System: AMES SALMONELLA TYPHIMURIUM; Strain/Indicator: TA100; Metabolic Activation: NONE; Method: DESICCATOR
The source made the active and inactive calls. The rule behind the calls is not given here.
Hello, when you answer, please use one of the following outcomes: active, inactive

Recorded test call requested for `Cl/C=C/CCl` active

Recorded test call requested for `CCC(C)(C)C` inactive

Recorded test call requested for `C=C(C)C` inactive

Recorded test call requested for `ClCCl` active

Recorded test call requested for `O=C=NCCCCCCN=C=O` inactive

====

# System: CCRIS mutagenicity, Ames/micronucleus/aberration tests
# Experiment description: CCRIS mutagenicity studies
# Measurement conditions: Test System: AMES SALMONELLA TYPHIMURIUM; Strain/Indicator: TA100; Metabolic Activation: RAT, LIVER, S-9, AROCLOR 1254; Method: STANDARD PLATE
Active and inactive are the calls of the source. No rule for the calls is given here.
Hello, when you answer, please use one of the following outcomes: YES (active), NO (inactive)

Recorded test call requested for `COc1ccc(CN(CC[N+](C)(C)[O-])c2ccccn2)cc1` NO

Recorded test call requested for `COc1ccc(N=O)cc1` YES

Recorded test call requested for `ClCCl` YES

Recorded test call requested for `Cl/C=C/CCl` YES

Recorded test call requested for `O=CC=C(Cl)Cl` YES

Recorded test call requested for `O[C@H]1c2ccccc2-c2cc3ccc4ccccc4c3cc2[C@@H]1O` YES

Recorded test call requested for `COc1cc(N)cc(OC)c1N` NO

Recorded test call requested for `CC1c2cc(F)ccc2-c2ccc(F)cc21` YES

Recorded test call requested for `O=S(=O)(Oc1ccc(Cl)cc1Cl)c1cccc2cccnc12` YES

Recorded test call requested for `Cc1ccc2nc3c(ccc4ccccc43)c(C)c2c1` YES

Recorded test call requested for CC(=O)Nc1ccc(OCC(O)CNC(C)C)cc1 (centres undefined) NO

Recorded test call requested for `c1ccc2c(c1)ccc1cc3cnccc3cc12` YES

Recorded test call requested for `O=Cc1ccccc1[N+](=O)[O-]` NO

Recorded test call requested for CC(C)=CC1C(C(=O)OCc2cccc(Oc3ccccc3)c2)C1(C)C (centres undefined) NO

====

# Test system: CCRIS mutagenicity, Ames/micronucleus/aberration tests
# Experiment description: CCRIS mutagenicity studies
# Measurement conditions: Test System: CHINESE HAMSTER V-79; Strain/Indicator: V-79/OUABAIN; Metabolic Activation: NONE; Method: STANDARD PLATE
Activity calls are given as the source filed them. How the calls were made is not given here.
Hello, when you answer, please use one of the following outcomes: active, inactive

Recorded test call requested for CC(C)=CC1C(C(=O)OCc2coc(Cc3ccccc3)c2)C1(C)C (stereo unspecified) inactive

Recorded test call requested for `CCOS(C)(=O)=O` active

Recorded test call requested for c1ccc2c(c1)cc1c3c2ccc2cccc(c23)C2OC12 (stereo unspecified) active

Recorded test call requested for `CN(C)N=O` inactive

Recorded test call requested for COC(=O)CN(CC(=O)OC)C1C[C@H]1N(CC(=O)OC)CC(=O)OC (stereo partly specified) active

Recorded test call requested for `ClC1=C(Cl)[C@]2(Cl)[C@@H]3[C@@H]4C[C@@H]([C@H]5O[C@@H]45)[C@@H]3[C@@]1(Cl)C2(Cl)Cl` active

====

# Test system: CCRIS mutagenicity, Ames/micronucleus/aberration tests
# Experiment description: CCRIS mutagenicity studies
# Measurement conditions: Test System: AMES SALMONELLA TYPHIMURIUM; Strain/Indicator: YG1020; Metabolic Activation: RAT, LIVER, S-9, PCB; Method: PREINCUBATION
Calls of active or inactive are those of the source. How the calls were made is not given here.
Hello, when you answer, please use one of the following outcomes: active, inactive

Recorded test call requested for `Nc1nc(-c2ccc([N+](=O)[O-])cc2)nc2c1ncn2[C@@H]1O[C@H](CO)[C@@H](O)[C@H]1O` active

Recorded test call requested for `Nc1nc(-c2ccc([N+](=O)[O-])cc2)nc2nc[nH]c12` active

Recorded test call requested for `Nc1ncnc2c1ncn2Cc1ccc([N+](=O)[O-])cc1` inactive

Recorded test call requested for `Nc1ncnc2c1ncn2-c1ccc([N+](=O)[O-])cc1[N+](=O)[O-]` inactive

====

# System: CCRIS mutagenicity, Ames/micronucleus/aberration tests
# Experiment description: CCRIS mutagenicity studies
# Measurement conditions: Test System: AMES SALMONELLA TYPHIMURIUM; Strain/Indicator: TA100; Metabolic Activation: HAMSTER, LIVER, S-9, AROCLOR 1254 (10%); Method: PREINCUBATION
Calls of active or inactive are those of the source. No rule for the calls is given here.
Hello, when you answer, please use one of the following outcomes: active, inactive

Recorded test call requested for `CCNc1cccc(O)c1` inactive

Recorded test call requested for `C=C(C)C(=O)OCC` inactive

Recorded test call requested for `O=NN1CCCCC1` active

Recorded test call requested for `O=C(O)c1ccccc1-c1c2ccc(=O)cc-2oc2cc(O)ccc12` inactive

Recorded test call requested for `O=[N+]([O-])c1c(O)c(Cl)cc(Cl)c1Cl` inactive

Recorded test call requested for FC(F)(F)C(Cl)Br (stereo unspecified) inactive

Recorded test call requested for `CC(C)CN` inactive

Recorded test call requested for `CCN1CCOCC1` inactive

Recorded test call requested for `C=C[Si](OCC)(OCC)OCC` inactive

Recorded test call requested for `CC(C)=CCl` inactive

Recorded test call requested for `CCC(C)(C)C` inactive
